system: HT-29; test: Cytotoxicity against human HT-29 cells assessed as cell growth at 100 uM after 48 hrs by sulforhodamine B assay relative to control; assay type: functional; conditions: HT-29, 48 h, read-out: Activity
I'd be grateful if you could share measured growth at 100 µM for these entries.
One number for each entry, in %.

Known results for compounds:
COc1cc(-c2cc(/C=C/C(=O)c3ccc(F)c(F)c3)[nH]n2)cc(OC)c1OC ... -67
COc1cc(-c2cc(/C=C/C(=O)c3ccc(N)cc3)[nH]n2)cc(OC)c1OC ... -49
COc1ccc(-c2cc(/C=C/C(=O)c3ccc(OC)c(OC)c3)[nH]n2)cc1 ... -81

For each of the items listed, what is its growth at 100 µM?
1. COc1ccc(C(=O)/C=C/c2cc(-c3ccc(OC)c(OC)c3)n[nH]2)cc1OC
2. COc1ccc(C(=O)/C=C/c2cc(-c3ccc4c(c3)OCO4)n[nH]2)cc1OC
3. COc1ccc(-c2cc(/C=C/C(=O)c3cc(OC)c(OC)c(OC)c3)[nH]n2)cc1OC
4. COc1cc(-c2cc(/C=C/C(=O)c3ccc(Cl)c(Cl)c3)[nH]n2)cc(OC)c1OC

Solution:
1: -39; 2: -44; 3: -66; 4: 3

----------
system: U-251; test: Cytotoxicity against human U251 cells assessed as cell growth at 100 uM after 48 hrs by sulforhodamine B assay relative to control; type: functional; conditions: U-251, 48 h, read-out: Activity
I'd be grateful if you could share measured growth at 100 µM for these entries.
Give bare numbers, in %.

Known results for molecules:
COc1ccc(-c2cc(/C=C/C(=O)c3ccc(N)cc3)[nH]n2)cc1 ... -100
COc1ccc(-c2cc(/C=C/C(=O)c3cc(OC)c(OC)c(OC)c3)[nH]n2)cc1OC ... -94
COc1cc(-c2cc(/C=C/C(=O)c3ccc(F)c(F)c3)[nH]n2)cc(OC)c1OC ... -29
COc1cc(C(=O)/C=C/c2cc(-c3ccc4c(c3)OCO4)n[nH]2)cc(OC)c1OC ... -98

Problem: Form field: reported growth at 100 µM of "COc1cc2c(cc1OC)C(=O)/C(=C/c1cc(-c3ccc4c(c3)OCO4)n[nH]1)C2"
Solution: -94

----------
I'd be grateful if you could share measured growth at 10 µM for these entries.
tested on: NCI-H460; experiment: Cytotoxicity against human NCI-H460 cells assessed as cell growth at 10 uM after 48 hrs by sulforhodamine B assay relative to control; assay type: functional; details: NCI-H460, 48 h, read-out: Activity
Returns: string containing the numeric result and its unit.

Known results for compounds:
COc1ccc(C(=O)/C=C/c2cc(-c3cc(OC)c(OC)c(OC)c3)n[nH]2)cc1OC ... -64%
COc1ccc(-c2cc(/C=C/C(=O)c3ccc(N)cc3)[nH]n2)cc1 ... -40%
COc1ccc(-c2cc(/C=C/C(=O)c3ccc(OC)c(OC)c3)[nH]n2)cc1 ... -43%

Then there is this compound:
Problem: Hello, I am looking for reported growth at 10 µM with NCI-H460 for "COc1ccc(C(=O)/C=C/c2cc(-c3ccc(OC)c(OC)c3)n[nH]2)cc1OC" . Could you help?
Solution: -20%

----------
test system: HCC 2998; assay: Cytotoxicity against human HCC2998 cells assessed as cell growth at 0.01 uM after 48 hrs by sulforhodamine B assay relative to control; type: functional; conditions: HCC 2998, 48 h, read-out: Activity
Property measured: growth at 0.01 µM (%)
One number for each entry, in %.

Known results for compounds:
COc1ccc(C(=O)/C=C/c2cc(-c3cc(OC)c(OC)c(OC)c3)n[nH]2)cc1OC ... 93
COc1cc(-c2cc(/C=C/C(=O)c3ccc(Cl)c(Cl)c3)[nH]n2)cc(OC)c1OC ... 96
COc1ccc(-c2cc(/C=C/C(=O)c3ccc(N)cc3)[nH]n2)cc1 ... 96

Then there is this compound:
Problem: Hello, I am looking for reported growth at 0.01 µM with HCC 2998 for "COc1ccc(C(=O)/C=C/c2cc(-c3ccc4c(c3)OCO4)n[nH]2)cc1OC" . Could you help?
Solution: 98

Each recorded value in this set is attributed to ChEMBL document CHEMBL4138123.
